Where do these numbers come from? They come from the supplement of paper PMC12494721.

test system: Escherichia coli IAI1; experiment: fold change of Putrescine concentration vs plate DMSO controls (fold change (ratio)); higher = more amine produced, active = hit call of the paper (significant change in both replicates, either direction); settings: incubation time: 27 h, anaerobic, 37 °C
Structures can show the parent of a compound that is named as a salt.
quantity: fold change of Putrescine concentration
Answer with the value's number alone.

>  <compound>
OC[C@H]1O[C@@](CO)(OC[C@@]2(OC[C@@]3(O[C@H]4O[C@H](CO)[C@@H](O)[C@H](O)[C@H]4O)O[C@H](CO)[C@@H](O)[C@@H]3O)O[C@H](CO)[C@@H](O)[C@@H]2O)[C@@H](O)[C@@H]1O [Nystose] (50 µM)

>  <fold change of Putrescine concentration>
0.999

$$$$
>  <compound>
C=CC1=C(C(=O)O)N2C(=O)[C@@H](NC(=O)/C(=N\OCC(=O)O)c3csc(N)n3)[C@H]2SC1 [Cefixime] (20 µM)

>  <fold change of Putrescine concentration>
0.484

$$$$

// fold change of Putrescine concentration lookup, compound = CN1CCN(C(c2ccccc2)c2ccccc2)CC1 [Cyclizine hydrochloride] (20 µM) , result: 1

// fold change of Putrescine concentration lookup, compound = COc1ccc2[nH]c([S+]([O-])Cc3ncc(C)c(OC)c3C)nc2n1 (centres undefined) [Tenatoprazole] (20 µM) , result: 1.06

// fold change of Putrescine concentration lookup, compound = Oc1c(Cl)cc(Cl)cc1Sc1cc(Cl)cc(Cl)c1O [Bithionol] (20 µM) , result: 1.26

// fold change of Putrescine concentration lookup, compound = Nc1nc(=O)c2nc(CNc3ccc(C(=O)N[C@@H](CCC(=O)O)C(=O)O)cc3)cnc2[nH]1 [Folic acid] (20 µM) , result: 1.05

---

system: Klebsiella aerogenes DSM 30053; assay: fold change of Putrescine concentration vs plate DMSO controls (fold change (ratio)); higher = more amine produced, active = hit call of the paper (significant change in both replicates, either direction); conditions: incubation time: 27 h, anaerobic, 37 °C
Would you mind labelling by fold change of Putrescine concentration? At or over 1 is true, under is false.

>  <compound>
O=C1CN(/N=C/c2ccc([N+](=O)[O-])o2)C(=O)N1 [Nitrofurantoin] (20 µM)

>  <cat>
false

$$$$
>  <compound>
Cc1ncc([N+](=O)[O-])n1CC(C)O (configuration not stated) [Secnidazole] (20 µM)

>  <cat>
true

$$$$

Could you now look at the following compound, please?
Q: Does fold change of Putrescine concentration meet or surpass 1 for COc1ccc(Cl)cc1C(=O)NCCc1ccc(S(=O)(=O)NC(=O)NC2CCCCC2)cc1 [Glibenclamide] (20 µM) ?
A: false

---

Listed here: items and their measured fold change of Cadaverine concentration.
test system: Klebsiella aerogenes DSM 30053; assay: fold change of Cadaverine concentration vs plate DMSO controls (fold change (ratio)); higher = more amine produced, active = hit call of the paper (significant change in both replicates, either direction); settings: incubation time: 27 h, anaerobic, 37 °C
Answer with the value's number alone.

// fold change of Cadaverine concentration lookup, compound = COc1c(O)cc2c(c1O)[C@@H]1O[C@H](CO)[C@@H](O)[C@H](O)[C@H]1OC2=O [Bergenin] (20 µM) , result: 1.03

---

test system: Klebsiella aerogenes DSM 30053; experiment: growth (OD595) fold change vs plate DMSO controls (fold change (ratio)); higher = more growth; details: incubation time: 27 h, anaerobic, 37 °C
Counter-ions that a name gives are not always drawn.
Listed here: items and their measured growth.
Answer with the value's number alone.

// growth lookup, compound = Cc1nc2n(c(=O)c1CCN1CCC(c3noc4cc(F)ccc34)CC1)CCCC2 [Risperidone] (20 µM) , result: 1

// growth lookup, compound = NS(=O)(=O)c1cc2c(cc1Cl)NCNS2(=O)=O [Hydrochlorothiazide] (20 µM) , result: 0.998

// growth lookup, compound = NCCc1ccc(O)c(O)c1 [Dopamine hydrochloride] (20 µM) , result: 1.03

// growth lookup, compound = Clc1cccc(Cl)c1NC1=NCCN1 [Clonidine hydrochloride] (20 µM) , result: 0.989

// growth lookup, compound = CCOC(=O)C1=C(C)NC(C)=C(C(=O)OC)C1c1cccc(Cl)c1Cl (configuration not stated) [Felodipine] (20 µM) , result: 1.04

// growth lookup, compound = CCCN1CCCC[C@H]1C(=O)Nc1c(C)cccc1C [Ropivacaine hydrochloride] (20 µM) , result: 0.964

// growth lookup, compound = COc1ccc(C2CNC(=O)C2)cc1OC1CCCC1 (configuration not stated) [Rolipram] (20 µM) , result: 1.03

// growth lookup, compound = N=C(N=C(N)N)N1CCOCC1 [Moroxidine hydrochloride] (20 µM) , result: 1

// growth lookup, compound = CN/C(=N\CCSCc1nc[nH]c1C)NC#N [Cimetidine] (20 µM) , result: 1.07

// growth lookup, compound = O=C1NS(=O)(=O)c2ccccc21 [Saccharin] (50 µM) , result: 0.976

// growth lookup, compound = Nc1ccc(S(=O)(=O)Nc2ccc(Cl)nn2)cc1 [Sulfachloropyridazine] (20 µM) , result: 1.05

// growth lookup, compound = NC(=O)c1cn(Cc2c(F)cccc2F)nn1 [Rufinamide] (20 µM) , result: 1.01

// growth lookup, compound = NS(=O)(=O)c1cc(C(=O)O)c(NCc2ccco2)cc1Cl [Furosemide] (20 µM) , result: 1.04

// growth lookup, compound = O=C(O)CNC(=O)c1ccccc1 [Hippuric acid] (20 µM) , result: 1.02

// growth lookup, compound = N[C@@H](Cc1ccc(O)c(O)c1)C(=O)O [Levodopa] (20 µM) , result: 0.989

// growth lookup, compound = CNCC(O)c1ccc(O)c(O)c1 (configuration not stated) [Racepinephrine hydrochloride] (20 µM) , result: 1.27
